Target: T1, hPD-1-his (human, UniProt Q15116 25-167)
T1 construct: domain: IgV domain; monomer in solution; biotin-labelled where captured by streptavidin; also called biotin-hPD-1-his
T1 sequence (Q15116 other isoform, or with tags, fused parts or gaps limits assumed): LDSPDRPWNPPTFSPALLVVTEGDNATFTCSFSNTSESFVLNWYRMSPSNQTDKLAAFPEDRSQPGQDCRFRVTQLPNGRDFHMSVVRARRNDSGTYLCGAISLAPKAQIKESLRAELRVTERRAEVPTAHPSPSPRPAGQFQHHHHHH
Experiment: ELISA, PD-1-his on anti-his

Binder: 32A11 (antibody, V domains shown) VH: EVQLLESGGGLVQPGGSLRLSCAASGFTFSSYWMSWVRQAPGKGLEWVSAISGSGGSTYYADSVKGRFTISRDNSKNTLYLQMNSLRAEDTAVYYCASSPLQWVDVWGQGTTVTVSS VL: DIQMTQSPSSLSASVGDRVTITCRASESISIWLAWYQQKPGKAPKLLIYDASNLETGVPSRFSGSGSGTNFTLTISSLQPEDFATYYCQQADSFPFTFGPGTKVDIK
OD at 10 nM, OD: 1.03
--
Binder: 39B3 (antibody, V domains shown) VH: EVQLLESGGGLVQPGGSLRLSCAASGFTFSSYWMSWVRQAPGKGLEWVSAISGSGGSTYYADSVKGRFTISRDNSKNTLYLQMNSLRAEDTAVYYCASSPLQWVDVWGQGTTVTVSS VL: DIQMTQSPSSLSASVGDRVTITCRASQSIGPWLAWYQQKPGKAPKLLIYDASNLETGVPSRFSGSGSGTDFTLTISSLQPEDFATYYCQQANSFPFTFGPGTKVDIK
OD at 10 nM, OD: 0.617
--
Binder: 38C11 (antibody, V domains shown) VH: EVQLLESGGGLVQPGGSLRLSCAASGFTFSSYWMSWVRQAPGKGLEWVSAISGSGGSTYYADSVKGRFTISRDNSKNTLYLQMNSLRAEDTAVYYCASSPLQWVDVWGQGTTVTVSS VL: DIQMTQSPSSLSASVGDRVTITCRASQSISRWLAWYQQKPGKAPKLLISDASTVQSGVPSRFSGSGSGTDFTLTISSLQPEDFATYYCQQANSFPFTFGPGTKVDIK
OD at 10 nM, OD: 0.404
--
Binder: 38A11 (antibody, V domains shown) VH: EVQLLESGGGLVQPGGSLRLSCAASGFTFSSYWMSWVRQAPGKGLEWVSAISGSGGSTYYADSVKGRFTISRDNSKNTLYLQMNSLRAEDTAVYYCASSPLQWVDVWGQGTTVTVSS VL: DIQMTQSPSSLSASVGDRVTITCRASQSISSWLAWYQQKPGKAPKLLIYDASTLQSGVPSRFSGSGSGTDFTLTISSLQPEDFATYYCQQGNSFPFTFGPGTKVDIK
OD at 10 nM, OD: 0.447
